Target Desc: T1, human calcitonin receptor (human, UniProt P30988 25-474)
T1 sequence (looked up): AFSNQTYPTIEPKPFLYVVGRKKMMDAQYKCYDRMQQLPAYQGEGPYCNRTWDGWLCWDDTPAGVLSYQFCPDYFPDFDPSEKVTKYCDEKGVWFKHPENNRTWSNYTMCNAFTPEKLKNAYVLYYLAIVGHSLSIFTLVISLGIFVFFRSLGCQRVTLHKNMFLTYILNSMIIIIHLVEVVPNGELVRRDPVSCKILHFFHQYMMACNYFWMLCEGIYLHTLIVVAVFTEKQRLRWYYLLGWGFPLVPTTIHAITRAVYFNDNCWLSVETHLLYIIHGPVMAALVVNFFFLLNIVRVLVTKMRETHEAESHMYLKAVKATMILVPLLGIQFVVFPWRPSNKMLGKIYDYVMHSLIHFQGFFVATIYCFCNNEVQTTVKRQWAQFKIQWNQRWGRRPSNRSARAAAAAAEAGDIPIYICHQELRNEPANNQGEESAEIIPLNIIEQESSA
Procedure Summary: cell-based or functional assay
Assign hCTR funct. EC50 to each entry below.
Your answer should be a plain number; it is taken to be in nM.

Param item = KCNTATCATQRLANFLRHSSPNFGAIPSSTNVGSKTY (C20 diacid-gGlu on the alpha amino group of the N-terminal residue; disulfide bridge Cys2-Cys7; C-terminal amide, also called compound 34) [N^α1-[(4S)-4-carboxy-4-(19-carboxynonadecanoylamino)butanoyl]-[Arg17,Pro21,Pro27,Lys35]-h-amylin] ; retrieve measured hCTR funct. EC50.
2.62

Param item = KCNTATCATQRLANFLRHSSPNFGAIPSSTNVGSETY (C20 diacid-gGlu on the alpha amino group of the N-terminal residue; disulfide bridge Cys2-Cys7; C-terminal amide, also called compound 23) [N^α1-[(4S)-4-carboxy-4-(19-carboxynonadecanoylamino)butanoyl]-[Arg17,Pro21,Pro27,Glu35]-h-amylin] ; retrieve measured hCTR funct. EC50.
3.02

Param item = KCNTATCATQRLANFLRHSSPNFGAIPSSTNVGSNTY (C20 diacid-gGlu-2xOEG on the alpha amino group of the N-terminal residue; disulfide bridge Cys2-Cys7; C-terminal amide, also called compound 24) ; retrieve measured hCTR funct. EC50.
10
